Source listed as PubChem BioAssay.

Test: forskolin-driven CRE-LacZ activity in PC12 – cell-based, CRE-LacZ reporter, forskolin-stimulated, primary screen (AID 1146);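 note: PC12 cells with 6xCRE LacZ reporter stimulated by forskolin 10 µM; beta-galactosidase reporter signal reflecting CREB driven transcription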
Details: luminescence, 4.5 h, higher = more signal, called active from +8 up or from −8 down
Property: z-score
Please respond with just the number, no unit label.

These solved cases illustrate the format of a correct answer.
Substance smiles: [N-]=[N+]=NCc1ccccc1[C@@H]1OC(c2ccc(OCCCO)cc2)=N[C@]1(CCS(=O)(=O)c1ccccc1)C(N)=O
Value reported: -0.785
--
Substance smiles: O=C(CS)NCCCCCNC(=O)[C@@H]1C[C@@H]2C(=O)NCC(=O)N2[C@@H]1c1cccc(OCCO)c1
Value reported: 0.0712

Problem: Determine its reported z-score: C#CCOc1ccc(C[C@@H](C(=O)OC)N(CC#C)[C@@H](/C=C/C2CC2)[C@H](O)Cc2ccccc2)cc1
Result: 1

Problem: State its z-score for this compound: CCCNC(=O)[C@@H]1c2ccccc2C(=O)N(Cc2ccccc2OC)[C@H]1c1ccc(CO)cc1
Result: -0.312
